# pEC50 values compiled below
TEST TARGET: human TMEM16A (TMEM16Aabc variant) (Homo sapiens, UniProt Q5XXA6, DEL476-501, form not given)
Sequence (Q5XXA6 with tags, fused parts or gaps DEL476-501): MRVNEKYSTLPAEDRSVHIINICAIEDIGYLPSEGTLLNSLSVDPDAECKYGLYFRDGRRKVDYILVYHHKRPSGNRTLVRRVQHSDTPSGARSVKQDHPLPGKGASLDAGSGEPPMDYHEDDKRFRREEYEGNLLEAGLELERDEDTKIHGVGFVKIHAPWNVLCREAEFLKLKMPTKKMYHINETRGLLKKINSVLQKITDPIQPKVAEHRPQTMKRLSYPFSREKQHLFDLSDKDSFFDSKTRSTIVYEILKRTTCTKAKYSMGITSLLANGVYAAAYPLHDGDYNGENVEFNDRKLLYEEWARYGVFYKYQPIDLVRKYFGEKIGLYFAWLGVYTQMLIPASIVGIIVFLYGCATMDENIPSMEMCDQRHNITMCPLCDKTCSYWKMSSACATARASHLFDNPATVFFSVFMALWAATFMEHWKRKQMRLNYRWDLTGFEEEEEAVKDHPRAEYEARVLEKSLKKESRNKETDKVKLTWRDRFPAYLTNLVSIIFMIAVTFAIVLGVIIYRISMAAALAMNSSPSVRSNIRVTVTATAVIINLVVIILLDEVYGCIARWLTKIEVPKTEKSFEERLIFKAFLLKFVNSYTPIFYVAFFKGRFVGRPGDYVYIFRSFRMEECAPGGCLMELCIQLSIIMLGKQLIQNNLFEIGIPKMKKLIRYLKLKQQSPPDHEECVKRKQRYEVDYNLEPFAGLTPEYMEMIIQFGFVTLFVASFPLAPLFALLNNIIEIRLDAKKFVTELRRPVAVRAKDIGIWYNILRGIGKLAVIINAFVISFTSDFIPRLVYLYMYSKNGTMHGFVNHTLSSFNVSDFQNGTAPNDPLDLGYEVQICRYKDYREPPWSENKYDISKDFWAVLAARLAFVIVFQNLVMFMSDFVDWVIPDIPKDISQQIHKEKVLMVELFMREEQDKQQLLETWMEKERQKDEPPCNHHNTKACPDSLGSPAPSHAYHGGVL
PROTOCOL NOTES: Automated whole-cell patch clamp (Qpatch) TMEM16A potentiator assay in FRT cells stably expressing human TMEM16A
Format: cell-based
COND: calculated EC50, Qpatch TMEM16A current at +70 mV
In textbook form, pEC50 equals minus log to base ten of the concentration in mol/L.

Illustrative cases are given below, each with its answer.
INSERT INTO assay_data (compound, measured_value) VALUES
  ('O=C(Cc1cc(Cl)ccc1O)Nc1cccc(C(=O)NC2CCOCC2)c1', 6.19),
  ('CC(C)(C)NC(=O)c1cc(NC(=O)Cc2cccc(Cl)c2)ccn1', 6.14),
  ('CC(C)(C)c1ccc(CC(=O)Nc2ccnc(C(=O)N[C@H]3CCCC[C@@H]3O)c2)cc1O', 7.30);

Ask | Tell me its pEC50 given CC(C)(C)NC(=O)c1cc(NC(=O)CC2C3CC4CC(C3)CC2C4)ccn1 (centres unmarked) as the entry.
Reply | 6.06

Ask | Tell me its pEC50 given "CC(C)(C)NC(=O)c1cc(NC(=O)Cc2c(Cl)cccc2Cl)ccn1" as the entry.
Reply | 6.19
